Would you kindly list binding signal for each of these binders?
MEASURED TARGET: d-enCas12a-Ultra (Acidaminococcus sp., UniProt U2UMQ6 1-1307, E174R;S542R;K548R;M537R;F870L;D908A;E993A;D1235A)
ASSAY METHOD TEXT: Spec-seq (native PAGE EMSA with sequencing of bound and unbound); 25 mM Tris-HCl pH 7.4, 150 mM KCl, 5 mM MgCl2, 10% glycerol, 1 mM DTT, 40 ng/uL salmon sperm DNA; 400 nM Cas12a, 480 nM crRNA, 50 nM library, 37 C 1 h; native PAGE at room temperature; high values mean tight binding;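 further: relative affinity from the bound to unbound sequence frequency ratio in Spec-seq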
ASSAY CONDITIONS: protein: recombinant
API: value field is a number in lnKA; no unit string.

Task: Give the measured binding signal for AGGC (dsDNA) DNA 1: GCTATCTAGTGCTCAGTACGCACTGAGGCAGGAAACTTCTGGCAGGACCAGGTCATGAGATCGGAAGAGCACACGTCTGAACTCCAGTCA DNA 2: TGACTGGAGTTCAGACGTGTGCTCTTCCGATCTCATGACCTGGTCCTGCCAGAAGTTTCCTGCCTCAGTGCGTACTGAGCACTAGATAGC RNA: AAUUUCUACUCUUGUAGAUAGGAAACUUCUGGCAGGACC
Result: -3.34

Task: Give the measured binding signal for CTGC (dsDNA) DNA 1: GCTATCTAGTGCTCAGTACGCACTGCTGCAGGAAACTTCTGGCAGGACCAGGTCATGAGATCGGAAGAGCACACGTCTGAACTCCAGTCA DNA 2: TGACTGGAGTTCAGACGTGTGCTCTTCCGATCTCATGACCTGGTCCTGCCAGAAGTTTCCTGCAGCAGTGCGTACTGAGCACTAGATAGC RNA: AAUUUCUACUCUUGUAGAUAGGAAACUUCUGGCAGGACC
Result: -2.48
